# tested-system: pooled human IgG
outcome-measure: Enzyme Activity Endpoint Assay (purified): scIgG (ng/µL)
Answer in ng/µL, number only, no unit symbol.

Answered examples (2):
PRT-265 (protein) MVTSVWTKGVTPPTNFTYGEDVLHAPYVANQGWYDITKLFNGKDNLLCGAATAGNMLHWWFDQNKEQIENYLKKHPEKQKINFNGEQLFDVKEAIDTKDSQLDSKLFEYFLEKAFPYLSTKHLGVFPDHVIDMFINGYRLSLTNHGPTPVKRGSKDKRGGIFDAVFTRGVQSKLLTNRHDFKEKTLKEISDLIKQELTEGKALGISHTYANVRINHVINLWGADFDAEGNLEAIAVTDSDTNASIGMKKYFVGVNSSGKVAISAKEIEEDNIGAQVLGLFTLSTGQDIWNQTN: 0
PRT-242 (protein) MVTSVWTKGVTPPANFTQGEDVFHAPYVANQGWYDITKTFNGKDDLLCGAATAGNMLHWWFDQNKDQIKRYLEEHPEKQKINFNGEQMFDVKEAIDTKNHQLDSKLFDYFKEKAFPNLSTKHLGVFPDHVIDMFINGYRLSLLNHGPTPVKEGSKDPRGGIFDAVFTRGDQSKLLTSRHDFKEKNLKEISDLIKKELTEGKALGLSHTYANVRINHVINLWGADFDSNGNLKAIYVTDSDSNPSIGMKKYFVGVNSSGKVAISAKEIKEDNIGAQVLGLFTLSTGQDSWNQTN: 0

Read off the recorded Enzyme Activity Endpoint Assay (purified): scIgG for PRT-78 (protein) MANQEIRYSEETPYHVTSVWTKGVTPPADFTQGEDVFHAPYVANQGWYDITKTFNGKDDLLCGAATAGNMLHWWFDQNKEYIEAYLKKHPEKQKIMFGDQELLDVRKAINTKGSQKNSELFNYFRDKAFPNLSARRLGVMPDLVLDMFINGYYLNVTKTQTTDVNRTYQEKDKRGGIFDAVFTRGDQSKLLTSRHDFKEKGLKEISDLIKQELTEGKALGLSHTYANVRINHVINLWGADFDSDGNLKAIYVTDSDSNASIGMKKYFVGVNSAGKVAISAKEIKEDNIGAQVLGLFTLSTGQDIWNQTN
11

Read off the recorded Enzyme Activity Endpoint Assay (purified): scIgG for PRT-632 (protein) MQITSVWTYGVTPLTPEQFRYNNYEVIHAPYKEGQGWYDITKAFDGKDNLLCGAATAGNMLHWWFDQNKTEIEAYLSKHPEKQKIIFNNQELFDLKAAIDTKDSQTNSQLFNYFRDKAFPNLSARQLGVMPDLVLDMFINGYYLNVFKTQSTDVNRPYQDKDKRGGIFDAVFTRGDQTTLLTARHDLKNKGLNDISTIIKQELTEGRALALSHTYANVSISHVINLWGADFNAEGNLEAIYVTDSDANASIGMKKYFVGINAHGHVAISAKKIEGENIGAQVLGLFTLSSGKDIWQKLSLEHHHHHH
0
